Measurement target: RAC-alpha serine/threonine-protein kinase (Homo sapiens, UniProt P31749)
Sequence (P31749 whole entry): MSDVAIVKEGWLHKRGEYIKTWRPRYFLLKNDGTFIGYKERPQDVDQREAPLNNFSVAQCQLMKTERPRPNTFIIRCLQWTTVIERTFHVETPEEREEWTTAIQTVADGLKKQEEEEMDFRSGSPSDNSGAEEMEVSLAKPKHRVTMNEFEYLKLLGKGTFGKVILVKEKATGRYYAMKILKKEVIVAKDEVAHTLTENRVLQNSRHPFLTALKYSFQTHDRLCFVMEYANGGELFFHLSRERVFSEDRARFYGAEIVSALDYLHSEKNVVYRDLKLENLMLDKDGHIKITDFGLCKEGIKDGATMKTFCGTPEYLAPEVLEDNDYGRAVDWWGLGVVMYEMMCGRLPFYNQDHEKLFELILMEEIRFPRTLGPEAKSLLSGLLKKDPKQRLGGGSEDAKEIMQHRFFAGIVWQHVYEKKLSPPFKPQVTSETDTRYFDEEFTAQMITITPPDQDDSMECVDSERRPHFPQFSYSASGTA
Experiment: Inhibition of recombinant AKT1
IC50 listing for selected compounds.

{"columns": ["Compound", "Measurement target", "Readout value"],
 "data": [
  ["COc1cc2c(c(O)c1-c1c(OC)cc(O)c3c1C(=O)C1=C(C3=O)[C@H](O)[C@@H](O)[C@@](C)(O)[C@@H]1O)C(=O)c1cc(O)c(C)cc1C2=O (single isomer, unassigned; atropisomer)", "RAC-alpha serine/threonine-protein kinase (Homo sapiens, UniProt P31749)", "> 16.2 µM"]
]}

Switching to the query record.
Prompt: Endpoint output: IC50 of COc1cc(O)c2c(c1)C(=O)C1=C(C2=O)[C@H](O)[C@@H](O)[C@@](C)(O)[C@@H]1O . Value?
Response: 19.9 µM
